Organism: Rattus norvegicus
Assay: Open TG-GATES - Regimen: Daily Repeat
Assay type: toxicity, organism-based, Sprague-Dawley
Set-up: regimen Daily Repeat, gender Male, age 6 weeks
Conditions: in vivo, po, 300 mg/kg, 72 h, tissue Blood, route gavage, dose level Middle, time 3 day
ENDPOINT LABEL: RBC (x10_4/ul)
Write the value in x10_4/ul as a bare number.

Sample records with RBC:
CN/C(=N/CCSCc1nc[nH]c1C)NC#N
616.6
COC(=O)C1=C(C)NC(C)=C(C(=O)OC)C1c1ccccc1[N+](=O)[O-]
630.8
O=C(OC[C@H]1O[C@@H](OC(=O)c2cc(O)c(O)c(OC(=O)c3cc(O)c(O)c(O)c3)c2)[C@H](OC(=O)c2cc(O)c(O)c(OC(=O)c3cc(O)c(O)c(O)c3)c2)[C@@H](OC(=O)c2cc(O)c(O)c(OC(=O)c3cc(O)c(O)c(O)c3)c2)[C@@H]1OC(=O)c1cc(O)c(O)c(OC(=O)c2cc(O)c(O)c(O)c2)c1)c1cc(O)c(O)c(OC(=O)c2cc(O)c(O)c(O)c2)c1
606.2

Problem: Tell me its RBC given CNC(=C[N+](=O)[O-])NCCSCc1ccc(CN(C)C)o1 as the entry.
Solution: 616.4

Problem: Tell me its RBC given CCOc1ccc(NC(C)=O)cc1 as the entry.
Solution: 678.8

Problem: Tell me its RBC given Cc1nnc2n1-c1ccc(Cl)cc1C(c1ccccc1Cl)=NC2 as the entry.
Solution: 639.2

The reported measurements were obtained from ChEMBL document CHEMBL3885861.
